target-under-test: T1, ZFP SBS#1187 (synthetic, UniProt P08047)
T1 chain: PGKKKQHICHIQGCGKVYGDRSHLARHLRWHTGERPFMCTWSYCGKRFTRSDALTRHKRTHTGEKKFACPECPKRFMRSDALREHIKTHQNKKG
assay-summary: EMSA
settings: tags: MBP fusion
measured-attribute: Kd (pM)
Express it in pM; write the number only.

*Q* Fill in: Kd of CTGGTGGGC (dsDNA) DNA 1: CTGGTGGGC DNA 2: GCCCACCAG is ___
*A* 6
